Ref: PubChem BioAssay (NCI)

Record form. Attribute: TGI. Fill in for each entry.
# Test system: SNB-75 CNS
# TEST_SUMMARY: NCI tumour cell line growth inhibition, 48 h
One number for each entry, in µM.

Completed entries (count: 4):
Cc1cc(N(CCOS(C)(=O)=O)CCOS(C)(=O)=O)ccc1C=Nc1ccc(-c2csc(-c3ccccc3)n2)c(Cl)c1	14.1
COc1cccc(-c2nn(-c3ccccc3)cc2-c2ccnc(NCCNS(=O)(=O)c3ccc(C(F)(F)F)cc3)c2)c1	37.1
CC1=CC(C)C(C)N(CCNC(=O)Nc2ccccc2)c2ccccc21 (stereo not drawn)	82.4
O=S(=O)(NCCNc1cc(-c2cn(-c3ccccc3)nc2-c2cccc(O)c2)ccn1)c1ccc(C(F)(F)F)cc1	14

--- query ---
Per the records, this compound ( `CC(=O)[O-].CC(=O)[O-].[Mn+2].c1ccc(/C(=N\Nc2ccccn2)c2ccccn2)cc1` ) has TGI equal to 17.7

---

# Test system: UACC-257 melanoma
# TEST_SUMMARY: NCI tumour cell line growth inhibition, 48 h
REPORTED_ENDPOINT: TGI

CC[O-].CC[O-].[O-]c1ccccc1C=Nc1ccccc1.[O-]c1ccccc1C=Nc1ccccc1.[Ti+4]	> 100 µM
NC(=S)SCCC(=O)O	> 100 µM
O=C(O)C(Cc1ccc(O)cn1)NC(=O)C(F)(F)F (centres undefined)	> 100 µM
O=C(O)C1C2C=CC(O2)C1C(=O)Nc1ccccc1 (centres undefined)	> 100 µM
CCCCCCNC(=O)c1cc(NCc2cc(OC)ccc2OC)ccc1O	45.7 µM

Answer for every listed entry: what is its TGI? The entries follow.
1. C1COC2SC3=C(SC(=C4SC5=C(SCCS5)S4)S3)SC2O1 (centres undefined)
2. CCOC(=O)Cc1ccc(Nc2nc3cc(C(F)(F)F)ccc3nc2C(=O)OCC)cc1
3. CCc1ccccc1NC(=O)/C(CC(=O)c1c(C)n([O-])c2ccccc2[n+]1=O)=N\NS(=O)(=O)c1ccc(C)cc1
4. O=S(=O)(NCCNc1cc(-c2cn(-c3ccccc3)nc2-c2cccc(O)c2)ccn1)c1ccc(C(F)(F)F)cc1
5. CCOC(=O)CSc1nc2ccccc2c(=O)n1N

1. > 100 µM
2. > 100 µM
3. 82.1 µM
4. 18.4 µM
5. > 100 µM

Answer for every listed entry: what is its TGI? The entries follow.
1. CCOC(=O)CSc1nc(-c2ccc(OC)cc2)c(C#N)c(=O)[nH]1
2. COC(=O)/C=C\c1ccc2c(c1)CC1(C2)Cc2ccc(/C=C/C(=O)OC)cc2C1 (centres undefined)
3. N=c1ccn2c(n1)OC1C(OP(=O)(O)O)C(CO)OC12 (centres undefined)
4. CCCCCCCCCCCCCCCCC1=CC(=O)C=C(OC)C1=O
5. [N-]=[N+]=NC1(N=[N+]=[N-])C(=O)NN=C(c2ccccc2)C1=O (centres undefined)

1. > 100 µM
2. > 31.6 µM
3. > 100 µM
4. > 100 µM
5. > 100 µM

Answer for every listed entry: what is its TGI? The entries follow.
1. Cc1cc(C)c(C(=O)O)c(N)c1O
2. CC(=O)O[C@H]1CC[C@H]2[C@@H]3CCc4cc(O)c(I)cc4[C@H]3CC[C@]12C
3. Cc1ccc2c(c1)C(=O)/C(=C1/CCc3ccc(C)cc31)C2

> 100 µM
30 µM
> 100 µM

Answer for every listed entry: what is its TGI? The entries follow.
1. CS(=O)(=O)c1ccc(N/N=C/c2c(-c3ccc(S(C)(=O)=O)cc3)[nH]c3ccc(F)cc23)cc1
2. CS(=O)(=O)CCNCc1ccc(-c2ccc3ncnc(Nc4ccc(OCc5ccccc5)c(C(F)(F)F)c4)c3c2)o1
3. O=C(NNC(=S)Nc1ccccc1)C12CC3CC(CC(C3)C1)C2
4. CC1(C)SC2C(C(=O)O)N=C(Cc3ccccc3)N2C1C(=O)O (centres undefined)
5. CC(=O)N1NC(c2ccccc2)=CC(=O)/C1=C/C(=O)c1ccccc1
6. COc1cc(C(=O)C/C(CCC(=O)Nc2ccccc2[N+](=O)[O-])=N\NC(=O)C(N)=O)ccc1O
7. N#CN=Nc1cc(Cl)c(N=NC#N)cc1Cl

1. 20.2 µM
2. 9.09 µM
3. > 100 µM
4. 49.2 µM
5. > 100 µM
6. > 100 µM
7. > 100 µM

Answer for every listed entry: what is its TGI? The entries follow.
1. CN1C(=O)n2c(nc3ccccc32)C(N=[N+]=[N-])(N=[N+]=[N-])C1=O (centres undefined)
2. COc1ccc(C)c2c1N[C@](C)([C@]1(C)Nc3c(OC)ccc(C)c3C1=O)C2=O
3. O=C(OCc1ccccc1)N1CCNCCNCC1
4. CCN1C(C)=NC2C(=O)c3ccccc3C(=O)C21 (centres undefined)
5. CC1=C(C)SC(=C2Sc3c(n(C)c(=O)[nH]c3=O)S2)S1
6. COc1ccc(OC)c(/C=C/c2nnc(Nc3ccc(Cl)cc3)o2)c1

["> 100 µM", "> 100 µM", "> 100 µM", "> 100 µM", "> 100 µM", "> 100 µM"]

Answer for every listed entry: what is its TGI? The entries follow.
1. CC(C)C1C(=O)N2CCCC2C2(O)OC(NC(=O)C3C=C4c5cccc6[nH]cc(c56)CC4N(C)C3)(C(C)C)C(=O)N12 (centres undefined)
2. CCN1C(=O)N(CC)C2C1NN=c1s/c(=C3\C(=O)N(CCC(C)C)c4ccccc43)c(=O)n12 (centres undefined)
3. COc1cc(N2CCC(N3CCN(C)CC3)CC2)ccc1Nc1ncc(Cl)c(Nc2ccccc2P(C)(C)=O)n1

76.2 µM
> 100 µM
> 100 µM
